Target: PBMC/LMP2 (Homo sapiens, UniProt P28065)
Test: Durability of binding in cells, wash-out assay, PBMC/LMP2
Type: cell-based
Details: 2 h incubation, inhibitor washout, 4 hr in culture
observable: IC50

Record CC(C)C=C(C#N)C(=O)N1CCC[C@@H]1COC[C@H](NC(=O)c1cc(Cl)ccc1Cl)C(=O)N[C@@H](Cc1ccccc1)B(O)O : what is its IC50 with PBMC/LMP2 (Homo sapiens, UniProt P28065)?
0.505 µM

----------
Molecular target: immunoproteasome LMP7/B5i subunit (Homo sapiens, UniProt P28062)
Experiment: Caliper-based proteasome enzymatic activity assay, LMP7
Format: biochemical
Details: human recombinant immunoproteasome 0.3 nM, FAM-labeled peptide substrate 1 μM, rt 3 h; read-out: LMP7 subunit IC50
Please note: IC50 exactly at 10 nM is False. Only values below 10 nM get True.

Please review the entries below; each comes with its answer.
INSERT INTO assay_data (molecule, target_entity, class_name) VALUES
  ('CC(C)C=C(C#N)C(=O)NCCCC[C@H](NC(=O)[C@H](C)NC(=O)C(C)C)C(=O)N[C@@H](Cc1ccccc1)B(O)O', 'immunoproteasome LMP7/B5i subunit (Homo sapiens, UniProt P28062)', 'False'),
  ('CC(C)(C=C(C#N)C(=O)N1CCCC[C@@H](OC(=O)N[C@@H](CC2=CCCC2)B(O)O)C1)N1CCOCC1', 'immunoproteasome LMP7/B5i subunit (Homo sapiens, UniProt P28062)', 'True'),
  ('CCc1cccc(C[C@H](NC(=O)[C@H](COC[C@H]2CCCN2C(=O)C(C#N)=CC(C)C)NCC(F)(F)F)B(O)O)c1', 'immunoproteasome LMP7/B5i subunit (Homo sapiens, UniProt P28062)', 'False'),
  ('CC(C)(C=C(C#N)C(=O)N1CCCC[C@H](OC(=O)N[C@@H](Cc2ccccc2)B(O)O)C1)N1CCOCC1 (single isomer, unassigned)', 'immunoproteasome LMP7/B5i subunit (Homo sapiens, UniProt P28062)', 'True'),
  ('CC1(C)CN(C(C)(C)C=C(C#N)C(=O)N2CCCC[C@@H](OC(=O)N[C@@H](Cc3ccccc3)B(O)O)C2)CCO1', 'immunoproteasome LMP7/B5i subunit (Homo sapiens, UniProt P28062)', 'True');

Please determine if C=CC(=O)N1C[C@@H](F)[C@H](OC(=O)N[C@@H](Cc2ccccc2)B(O)O)C1 is below 10 nM in terms of IC50.
False

Item: CC1(C)CCN(C(C)(C)C=C(C#N)C(=O)N2CCC[C@H](OC(=O)N[C@@H](Cc3ccc(C(F)(F)F)cc3)B(O)O)C2)C1
False

Item: CC(C)(C=C(C#N)C(=O)N1CC[C@@H](OC(=O)N[C@@H](Cc2ccccc2)B(O)O)C1)N1CCC(F)(F)C1
True

----------
Target: immunoproteasome LPM2/β1i subunit (Homo sapiens)
Test: Caliper-based proteasome enzymatic activity assay, LMP2
Conditions: human recombinant immunoproteasome 0.3 nM, FAM-labeled peptide substrate 1 μM, rt 2 h
pIC50: −log10 of the molar value.
observable: pIC50

Known pIC50 results, listed for orientation:
INSERT INTO assay_data (structure_notation, test_result) VALUES
  ('CC(C)(C)C=C(C#N)C(=O)N1CCCC[C@H]1CNC(=O)N[C@@H](Cc1ccccc1)B(O)O', '< 5.30'),
  ('CC(C)C=C(C#N)C(=O)NCCCC[C@H](NC(=O)c1cnccn1)C(=O)N[C@@H](Cc1ccccc1)B(O)O', 6.94),
  ('Cc1ccc(C[C@H](NC(=O)OC[C@H]2CCCN(C(=O)C(C#N)=CC(C)(C)C)C2)B(O)O)cc1', '< 5.30'),
  ('CC(C)(C)C=C(C#N)C(=O)N1CCC[C@@H]1CNC(=O)N[C@@H](Cc1coc2ccccc12)B(O)O', '< 5.30'),
  ('CC(C)C=C(C#N)C(=O)N1CCCC[C@@H]1COC[C@H](NCC(F)(F)F)C(=O)N[C@@H](Cc1ccccc1)B(O)O', 6.15),
  ('CC(C)C=C(C#N)C(=O)N1CCC(CCCC(=O)N[C@@H](Cc2ccccc2)B(O)O)CC1', '< 5.30');

For each listed entry, give its pIC50.
1. C=CC(=O)N1CCCC[C@H]1CNC(=O)N[C@@H](Cc1ccccc1)B(O)O
2. C=CC(=O)N(C)c1cccc(C[C@H](NC(=O)c2cc(Cl)ccc2Cl)C(=O)N[C@@H](Cc2ccccc2)B(O)O)c1
3. CC(C)C=C(C#N)C(=O)N(C)c1cccc(C[C@H](NC(=O)c2cc(Cl)ccc2Cl)C(=O)N[C@@H](Cc2ccccc2)B(O)O)c1
4. CC(C)(C)C=C(C#N)C(=O)N1CCC[C@H]1CNC(=O)N[C@@H](Cc1ccccc1)B(O)O
5. CC(C)(C=C(C#N)C(=O)N1CCC[C@@H]1CNC(=O)N[C@@H](Cc1coc2ccccc12)B(O)O)N1CCN(C2COC2)CC1

["< 5.30", 8.57, 6.32, "< 5.30", 5.43]

For each listed entry, give its pIC50.
1. CC(C)C=C(C#N)C(=O)N1CCCC[C@H]1CNC(=O)N[C@@H](Cc1ccccc1)B(O)O
2. Cc1ccc(C[C@H](NC(=O)OC[C@H]2CCN(C(=O)C(C#N)=CC(C)(C)C)C2)B(O)O)cc1

["< 5.30", "< 5.30"]
